Origin of measurements: paper PMC8406298

For each record, write down the corresponding Cytotoxicity: Relative Cell Viability (% of Negative Control).
# System: normal human dermal fibroblasts (NHDF) cells
# TEST: Fibroblast cytotoxicity (CellTiter-Glo)
# Assay type: cell-based
# CONDITION_LABEL: 10 µM

Query :: Report Cytotoxicity: Relative Cell Viability (% of Negative Control) for OC(COCC12CC3CC(CC(C3)C1)C2)CN1CCc2ccccc2C1 (centres unmarked) [compound 16456321] please.
Result :: 12.1 % of Negative Control

Query :: Report Cytotoxicity: Relative Cell Viability (% of Negative Control) for O=C(C1COc2ccccc2O1)N1CCN(c2nc3c(F)cccc3s2)CC1 (centres unmarked) [compound 16032794] please.
Result :: 115.2 % of Negative Control

Query :: Report Cytotoxicity: Relative Cell Viability (% of Negative Control) for Cc1cc(C(=O)N(CCc2cccs2)C2CC2)c(C)o1 [compound 71781394] please.
Result :: 103.1 % of Negative Control

Query :: Report Cytotoxicity: Relative Cell Viability (% of Negative Control) for CC(C)Cc1nnc(NC(=O)C(Cl)Cl)s1 [compound 697528] please.
Result :: 96.1 % of Negative Control

Query :: Report Cytotoxicity: Relative Cell Viability (% of Negative Control) for COc1ccc2nc(NS(=O)(=O)c3ccc(Cl)s3)sc2c1 [compound 16934153] please.
Result :: 76.4 % of Negative Control

Query :: Report Cytotoxicity: Relative Cell Viability (% of Negative Control) for Oc1ccc(-c2ccccc2)cc1Br [compound 27297] please.
Result :: 4.7 % of Negative Control

Query :: Report Cytotoxicity: Relative Cell Viability (% of Negative Control) for O=C(c1cc(-c2ccco2)on1)N1CCC(c2cccs2)CC1 [compound 71786870] please.
Result :: 90.1 % of Negative Control

Query :: Report Cytotoxicity: Relative Cell Viability (% of Negative Control) for O=C1/C(=C/c2ccncc2)SC(=S)N1Nc1ccccc1 [compound 1636480] please.
Result :: 86.8 % of Negative Control

====

# Test system: normal human dermal fibroblasts (NHDF) cells
# TEST: Fibroblast cytotoxicity (CellTiter-Glo)
# Type: cell-based
# CONDITION_LABEL: 10 µM
OBSERVATION_TYPE: Cytotoxicity: Relative Cell Viability (% of Negative Control)

Query :: Report Cytotoxicity: Relative Cell Viability (% of Negative Control) for C[n+]1sc(Nc2ccccc2)nc1-c1ccccc1 please.
Result :: 16.5 % of Negative Control

Query :: Report Cytotoxicity: Relative Cell Viability (% of Negative Control) for Cc1cc(C(=O)NCC2Cc3ccccc3CO2)c(C)o1 (stereo not drawn) please.
Result :: 98.3 % of Negative Control

Query :: Report Cytotoxicity: Relative Cell Viability (% of Negative Control) for O=C(COc1ccc2ccccc2c1)NCC1COC2(CCCC2)O1 (stereo not drawn) please.
Result :: 99.9 % of Negative Control

Query :: Report Cytotoxicity: Relative Cell Viability (% of Negative Control) for Cc1ccc(N2C(=O)CC(Sc3ccccc3C(=O)N3CCOCC3)C2=O)cc1 (stereo not drawn) please.
Result :: 94.9 % of Negative Control

Query :: Report Cytotoxicity: Relative Cell Viability (% of Negative Control) for CSC1=Nc2cccnc2Nc2ccccc21 please.
Result :: 94.9 % of Negative Control

Query :: Report Cytotoxicity: Relative Cell Viability (% of Negative Control) for CCOC(=O)c1ccc(NC(=O)CCc2ccc(CC)o2)cc1 please.
Result :: 113.1 % of Negative Control

Query :: Report Cytotoxicity: Relative Cell Viability (% of Negative Control) for Cc1ccn(-c2ccc(N3CCN(C(=O)c4ccccc4Br)CC3)nn2)n1 please.
Result :: 101.9 % of Negative Control

Query :: Report Cytotoxicity: Relative Cell Viability (% of Negative Control) for C=CCN(CC=C)CC(O)CN1c2ccccc2Sc2ccccc21 (stereo not drawn) please.
Result :: 5.4 % of Negative Control

Query :: Report Cytotoxicity: Relative Cell Viability (% of Negative Control) for Cc1ccc(-c2nnc(Cn3cnc4ccccc43)o2)cc1 please.
Result :: 69.7 % of Negative Control

====

# Test system: normal human dermal fibroblasts (NHDF) cells
# TEST: Fibroblast cytotoxicity (CellTiter-Glo)
# Format: cell-based
# CONDITION_LABEL: 10 µM
# Procedure: PrimaPure normal human dermal fibroblasts (NHDF) cells (Genlatis PH10605A) were cultured and passaged in fibroblast growth medium (Genlatis PM116500) according to the manufacturer’s protocol. NHDF cells (1 × 10^3 per well) were plated in a 384-well plate in cell culture medium. […] Following treatment, CellTiter-Glo (Promega) reagent was used to assay ATP-dependent luminescence and thus provide a measure of cell viability. […]
For each record, write down the corresponding Cytotoxicity: Relative Cell Viability (% of Negative Control).

Query :: Report Cytotoxicity: Relative Cell Viability (% of Negative Control) for CC(C)(c1ccc(O)cc1)c1ccc(Cl)cc1 please.
Result :: 2.1 % of Negative Control

Query :: Report Cytotoxicity: Relative Cell Viability (% of Negative Control) for COc1ccc(CCNc2ncnc3scc(-c4cccs4)c23)cc1OC please.
Result :: 97.9 % of Negative Control

Query :: Report Cytotoxicity: Relative Cell Viability (% of Negative Control) for O=C(NN1C(=O)/C(=C\c2ccco2)SC1=S)c1ccc(OC(F)F)cc1 please.
Result :: 93.6 % of Negative Control

Query :: Report Cytotoxicity: Relative Cell Viability (% of Negative Control) for Cc1ccc(OCCn2c(C)nc3ccccc32)cc1 please.
Result :: 90.6 % of Negative Control

Query :: Report Cytotoxicity: Relative Cell Viability (% of Negative Control) for NS(=O)(=O)c1ccc(NC(=O)CSC2CC(=O)N(c3ccc(Br)cc3)C2=O)cc1 (stereo not drawn) please.
Result :: 102.2 % of Negative Control

Query :: Report Cytotoxicity: Relative Cell Viability (% of Negative Control) for COc1ccc2nc(N3CCCC(C(=O)O)C3)sc2c1 (stereo not drawn) please.
Result :: 105.4 % of Negative Control

Query :: Report Cytotoxicity: Relative Cell Viability (% of Negative Control) for O=C(N=C1C(Cl)=C(Cl)C(=O)c2ccccc21)c1ccc(Cl)cc1 please.
Result :: 7.1 % of Negative Control

Query :: Report Cytotoxicity: Relative Cell Viability (% of Negative Control) for O=C(COc1ccccc1F)N1CCC(Oc2ncccc2Br)CC1 please.
Result :: 101.4 % of Negative Control

Query :: Report Cytotoxicity: Relative Cell Viability (% of Negative Control) for O=S(=O)(Nc1nc2c(F)cccc2s1)c1ccc(Cl)s1 please.
Result :: 77.5 % of Negative Control

Query :: Report Cytotoxicity: Relative Cell Viability (% of Negative Control) for COc1ccc(C2=CC(=O)C=CC2=O)cc1 please.
Result :: 3.0 % of Negative Control

Query :: Report Cytotoxicity: Relative Cell Viability (% of Negative Control) for CCCOC1(NS(=O)(=O)c2ccccc2)C(Cl)=C(Cl)C(=O)c2ccccc21 (stereo not drawn) please.
Result :: 17.7 % of Negative Control

Query :: Report Cytotoxicity: Relative Cell Viability (% of Negative Control) for Cc1n[nH]c(C)c1Br please.
Result :: 59.9 % of Negative Control

Query :: Report Cytotoxicity: Relative Cell Viability (% of Negative Control) for Cc1ccc(COC(=O)c2ccc(C3Nc4ccccc4S(=O)(=O)N3)cc2)cc1 (stereo not drawn) please.
Result :: 106.4 % of Negative Control

Query :: Report Cytotoxicity: Relative Cell Viability (% of Negative Control) for CC(=O)c1cccc(NC(=O)c2cc(Cl)sc2Cl)c1 please.
Result :: 79.8 % of Negative Control

Query :: Report Cytotoxicity: Relative Cell Viability (% of Negative Control) for CCOC(=O)c1ccc(N2C(=O)CC(SCC(=O)Nc3ccc(S(N)(=O)=O)cc3)C2=O)cc1 (stereo not drawn) please.
Result :: 118.0 % of Negative Control

Query :: Report Cytotoxicity: Relative Cell Viability (% of Negative Control) for COc1ccc(-c2noc(-c3cc(-c4cc(C)ccc4C)n[nH]3)n2)cc1OC please.
Result :: 94.0 % of Negative Control

Query :: Report Cytotoxicity: Relative Cell Viability (% of Negative Control) for O=C(Cn1c(=O)n(Cc2cccnc2)c(=O)c2ncccc21)Nc1ccc2c(c1)OCO2 please.
Result :: 101.3 % of Negative Control

Query :: Report Cytotoxicity: Relative Cell Viability (% of Negative Control) for CCOC(=O)c1c(-c2ccc(C)o2)csc1NC(=O)c1ccc2c(c1)OCCO2 please.
Result :: 75.3 % of Negative Control

====

For each record, write down the corresponding Cytotoxicity: Relative Cell Viability (% of Negative Control).
# System: normal human dermal fibroblasts (NHDF) cells
# TEST: Fibroblast cytotoxicity (CellTiter-Glo)
# Assay type: cell-based
# CONDITION_LABEL: 10 µM

Query :: Report Cytotoxicity: Relative Cell Viability (% of Negative Control) for O=C(COC(=O)c1ccc(C2Nc3ccccc3S(=O)(=O)N2)cc1)Nc1cc(F)ccc1F (stereo not drawn) [compound 44117394] please.
Result :: 105.4 % of Negative Control

Query :: Report Cytotoxicity: Relative Cell Viability (% of Negative Control) for O=S(=O)(Nc1ccc(Br)cc1F)c1cccc(Cl)c1 [compound 983861] please.
Result :: 101.6 % of Negative Control

Query :: Report Cytotoxicity: Relative Cell Viability (% of Negative Control) for O=C(C1CCC1)N(Cc1cccnc1)c1nc2ccc(Cl)cc2s1 [compound 43967671] please.
Result :: 97.1 % of Negative Control

Query :: Report Cytotoxicity: Relative Cell Viability (% of Negative Control) for Nc1nc(Cl)cc(Nc2cccc(C(F)(F)F)c2)n1 [compound 42589452] please.
Result :: 51.8 % of Negative Control

Query :: Report Cytotoxicity: Relative Cell Viability (% of Negative Control) for O=C1NC(=S)S/C1=C\c1ccccc1F [compound 1204290] please.
Result :: 92.9 % of Negative Control

Query :: Report Cytotoxicity: Relative Cell Viability (% of Negative Control) for CN(C)c1ccc(NC(=O)/C=C/c2ccccc2Cl)cc1 [compound 723732] please.
Result :: 79.8 % of Negative Control

Query :: Report Cytotoxicity: Relative Cell Viability (% of Negative Control) for Cc1cc(C(=O)N2CCC(Oc3ncccc3Cl)CC2)c(C)o1 [compound 71798856] please.
Result :: 93.6 % of Negative Control

Query :: Report Cytotoxicity: Relative Cell Viability (% of Negative Control) for Cc1ccc(Nc2cc(Cl)nc(N)n2)cc1Cl [compound 243059] please.
Result :: 46.1 % of Negative Control

Query :: Report Cytotoxicity: Relative Cell Viability (% of Negative Control) for N#Cc1nc2c(nc1C#N)-c1ccccc1C2=O [compound 292929] please.
Result :: 5.9 % of Negative Control
